Below, each entry is listed with its recorded hMAO-A RA [%].
Target: hMAO-A (Homo sapiens)
Construct: purchased Sigma Aldrich; host or cells: BTI-TN-5B1-4 baculovirus-infected insect cells
Sequence (P21397 whole entry): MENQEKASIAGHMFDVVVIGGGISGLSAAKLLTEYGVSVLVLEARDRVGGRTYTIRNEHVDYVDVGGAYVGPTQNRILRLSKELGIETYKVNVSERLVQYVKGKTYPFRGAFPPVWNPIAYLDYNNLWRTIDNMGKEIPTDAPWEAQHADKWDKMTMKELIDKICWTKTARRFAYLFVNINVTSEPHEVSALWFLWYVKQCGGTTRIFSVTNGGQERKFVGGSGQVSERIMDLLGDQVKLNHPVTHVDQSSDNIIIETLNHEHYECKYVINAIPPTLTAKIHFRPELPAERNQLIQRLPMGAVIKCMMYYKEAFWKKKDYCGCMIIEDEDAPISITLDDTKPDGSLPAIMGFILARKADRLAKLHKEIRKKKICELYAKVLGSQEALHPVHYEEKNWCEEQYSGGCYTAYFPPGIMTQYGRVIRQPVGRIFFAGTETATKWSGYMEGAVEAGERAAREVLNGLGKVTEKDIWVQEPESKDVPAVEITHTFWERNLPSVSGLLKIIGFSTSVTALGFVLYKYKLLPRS
Test: Inhibition of hMAO-A, fluorimetric Amplex Red assay
Format: biochemical
Settings: residual activity at 10 µM; Table S3
Give a bare numeral; the unit % is implied.

Past entries and their recorded results:
c1cc(OCC2CCCN2c2ccnc3ncnn23)c2cccnc2c1 (centres unmarked) [Compound S4] :: 80
O=C(OCC1CCCN1c1ccnc2ncnn12)c1ccccc1I (centres unmarked) [Compound S9] :: 90

Report measured hMAO-A RA [%]; entry is O=C(OCC1CCCN1c1ccnc2ncnn12)c1cccc(OC(F)(F)F)c1 (centres unmarked) [Compound S10] 92

Report measured hMAO-A RA [%]; entry is c1cc(OCC2CCCN2c2ccnc3ncnn23)c2ccncc2c1 (centres unmarked) [Compound S2] 87

Report measured hMAO-A RA [%]; entry is CCOc1cccc(C(=O)OCC2CCCN2c2ccnc3ncnn23)c1 (centres unmarked) [Compound S6] 96
